Test system: C32
protocol: Antiproliferative activity against human C32 cells assessed as reduction in cell viability incubated for 72 hrs by WST1 assay
Format: functional, cell-based
condition-info: Homo sapiens, C32, 72 h; read-out: IC50
experimental-readout: IC50 (µM)

1. C#CC(=O)OC[C@]12CC[C@@H](C(=C)C)[C@@H]1[C@H]1CC[C@@H]3[C@@]4(C)CC[C@H](OC5=C(Cl)C(=O)c6ccccc6C5=O)C(C)(C)[C@@H]4CC[C@@]3(C)[C@]1(C)CC2: 1.04
2. C=C(C)[C@@H]1CC[C@]2(COC3=C(Cl)C(=O)c4ccc(C)nc4C3=O)CC[C@]3(C)[C@H](CC[C@@H]4[C@@]5(C)CC[C@H](OC(C)=O)C(C)(C)[C@@H]5CC[C@]43C)[C@@H]12: 1.33
3. C=C(C)[C@@H]1CC[C@]2(COC3=C(Cl)C(=O)c4ccc(C)nc4C3=O)CC[C@]3(C)[C@H](CC[C@@H]4[C@@]5(C)CC[C@H](O)C(C)(C)[C@@H]5CC[C@]43C)[C@@H]12: 12.7
4. C=C(C)[C@@H]1CC[C@]2(COC(C)=O)CC[C@]3(C)[C@H](CC[C@@H]4[C@@]5(C)CC[C@H](OC6=C(Cl)C(=O)c7ccc(C)nc7C6=O)C(C)(C)[C@@H]5CC[C@]43C)[C@@H]12: 6.52
5. C#CC(=O)OC[C@]12CC[C@@H](C(=C)C)[C@@H]1[C@H]1CC[C@@H]3[C@@]4(C)CC[C@H](OC5=C(Cl)C(=O)c6cccnc6C5=O)C(C)(C)[C@@H]4CC[C@@]3(C)[C@]1(C)CC2: 1.27
6. C=C(COC1=C(Cl)C(=O)c2ccc(C)nc2C1=O)[C@@H]1CC[C@]2(COC(C)=O)CC[C@]3(C)[C@H](CC[C@@H]4[C@@]5(C)CC[C@H](OC(C)=O)C(C)(C)[C@@H]5CC[C@]43C)[C@@H]12: 1.14
7. C=C(C)[C@@H]1CC[C@]2(COC(C)=O)CC[C@]3(C)[C@H](CC[C@@H]4[C@@]5(C)CC[C@H](OC6=C(Cl)C(=O)c7ccccc7C6=O)C(C)(C)[C@@H]5CC[C@]43C)[C@@H]12: 1.72
8. C=C(COC1=C(Cl)C(=O)c2cccnc2C1=O)[C@@H]1CC[C@]2(COC(C)=O)CC[C@]3(C)[C@H](CC[C@@H]4[C@@]5(C)CC[C@H](OC(C)=O)C(C)(C)[C@@H]5CC[C@]43C)[C@@H]12: 22.9
9. C=C(COC1=C(Cl)C(=O)c2ccccc2C1=O)[C@@H]1CC[C@]2(COC(C)=O)CC[C@]3(C)[C@H](CC[C@@H]4[C@@]5(C)CC[C@H](OC(C)=O)C(C)(C)[C@@H]5CC[C@]43C)[C@@H]12: 24.7
10. C=C(C)[C@@H]1CC[C@]2(COC3=C(Cl)C(=O)c4ccccc4C3=O)CC[C@]3(C)[C@H](CC[C@@H]4[C@@]5(C)CC[C@H](OC(C)=O)C(C)(C)[C@@H]5CC[C@]43C)[C@@H]12: 13.8

From: ChEMBL document CHEMBL4393724
